Test: MTT cell viability assay, THLE2 cells, 72 h
Assay type: cell-based
Conditions: human, immortalized normal hepatocytes THLE2, 72 hours, 0.016-50.0 μM tested
Protocol: Huh-7 cells and derived from hepatocellular carcinoma cells, and were donated by Dr. Xuanyong Lu, (Drexel University College of Medicine, Doylestown, Pa.). THLE-2 were purchased from American Type Culture Collection (Manassas, Va.). PH5CH were donated by Dr. Masayuki Noguchi (University of Tsukuba, Ibaraki, Japan). […] Huh7 cells were plated on 96-well plates at 2.0×10^4 cells per well to permit grow in the presence of compounds of the disclosure. […] Absorbance was measured at 570 nm (reference 630 nm). […]
Mark label 1 only for CC50 at 72 h values smaller than 20 µM; exact matches and larger values are label 0.

> print(dat)
                   substance.smiles  assigned.class
1  CC(C)c1sc(Nc2ncccn2)nc1-c1ccccn1         label 0

**Q:** Hi there! Is CC50 at 72 h for Brc1cnc(Nc2nc(-c3ccccn3)cs2)nc1 below 20 µM, do you know?
**A:** label 0

**Q:** Determine if c1cnc(Nc2nc(-c3ccncc3)cs2)nc1 shows CC50 at 72 h strictly lower than 20 µM.
**A:** label 0

**Q:** Threshold test, CC50 at 72 h < 20 µM: CC(C)(C)OC(=O)c1sc(N(c2ncccn2)C(C)(C)C)nc1-c1ccccn1
**A:** label 0

**Q:** Is CC50 at 72 h of OCc1sc(Nc2ncccn2)nc1-c1ccccn1 strictly below 20 µM?
**A:** label 0

**Q:** For this compound, is CC50 at 72 h lower than 20 µM? CCc1sc(Nc2ncccn2)nc1-c1ccccn1
**A:** label 0

**Q:** Determine whether this compound shows CC50 at 72 h lower than 20 µM (ties excluded): FC(F)(F)c1ccnc(Nc2nc(-c3ccccn3)cs2)n1
**A:** label 0

====

Assay: MTT cell viability assay, THLE2 cells, 72 h
Type: cell-based
Conditions: human, immortalized normal hepatocytes THLE2, 72 hours, 0.016-50.0 μM tested
For each of the compounds below, state its CC50 at 72 h.
Numbers only, in µM.

> print(dat)
                substance.smiles  observed.measurement
1  c1cnc(Nc2nc(-c3cccnc3)cs2)nc1                  8.66

Each compound below has a recorded value; state its CC50 at 72 h.
1. c1ccc(-c2nc(Nc3ncccn3)sc2C2CCCCC2)nc1
2. Cc1ccc2nc(Nc3nc(-c4ccccn4)cs3)sc2c1

**A:**
1: 3.54; 2: 3.96

====

Assay: MTT cell viability assay, THLE2 cells, 72 h
Format: cell-based
Details: human, immortalized normal hepatocytes THLE2, 72 hours, 0.016-50.0 μM tested
I'd be grateful if you could share measured CC50 at 72 h for these entries.

Example entries and their recorded answers appear below.
> print(dat)
                   substance.smiles  observed.measurement
1  OCCN(c1ncccn1)c1nc(-c2ccccn2)cs1               ≥ 50 µM
2    N#Cc1sc(Nc2ncccn2)nc1-c1ccccn1               ≥ 50 µM

**Q:** CC50 at 72 h for Oc1cccc(Nc2nc(-c3ccccc3)cs2)c1 ?
**A:** ≥ 50 µM
